For each of the compounds below, state its EC50.
biological target: GPR55 (Homo sapiens, UniProt Q9Y2T6); test: Real-time receptor internalization (TR-FRET), concentration-response; type: cell-based; design: hIL-2Ra signal peptide (N); expressed in transfected cells; details: receptor GPR55; mean, SEM and n (3-4); read-out: Internalization assays pEC50 (converted)
Sequence (Q9Y2T6 2-319 limits assumed): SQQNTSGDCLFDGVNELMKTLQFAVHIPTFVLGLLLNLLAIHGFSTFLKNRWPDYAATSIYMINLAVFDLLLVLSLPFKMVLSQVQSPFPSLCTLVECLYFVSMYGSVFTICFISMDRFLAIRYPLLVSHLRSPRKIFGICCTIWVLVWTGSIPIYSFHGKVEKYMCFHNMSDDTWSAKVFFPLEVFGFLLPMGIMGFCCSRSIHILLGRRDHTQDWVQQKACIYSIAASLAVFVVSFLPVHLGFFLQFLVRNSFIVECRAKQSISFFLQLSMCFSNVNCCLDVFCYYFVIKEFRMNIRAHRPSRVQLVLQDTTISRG
Residues, ends and D or L forms follow the SMILES beside them.
Express your answer as a number followed by its unit.

Given the compound CC[C@H](C)[C@H](NC(=O)CNC(=O)[C@H](CC(=O)O)NC(=O)[C@H](CO)NC(=O)[C@@H](N)Cc1c[nH]cn1)C(=O)N[C@@H](Cc1ccccc1)C(=O)N[C@H](C(=O)N[C@@H](CC(=O)O)C(=O)N[C@@H](CO)C(=O)N[C@@H](Cc1ccc(O)cc1)C(=O)N[C@@H](CO)C(=O)N[C@@H](CCCNC(=N)N)C(=O)N[C@@H](Cc1ccc(O)cc1)C(=O)O)[C@@H](C)O [Peptide 168.4] (H-HSDGIFTDSYSRY-OH) , what is its reported EC50? 0.316 µM

Consider the compound CC[C@H](C)[C@H](NC(=O)[C@H](CC(=O)O)NC(=O)[C@@H](NC(=O)[C@H](Cc1ccc(O)cc1)NC(=O)[C@@H](NC(=O)CNC(=O)[C@H](CC(N)=O)NC(=O)[C@@H](NC(=O)[C@H](CC(C)C)NC(=O)[C@H](Cc1ccc(O)cc1)NC(=O)[C@H](CC(=O)O)NC(=O)[C@H](CC(C)C)NC(=O)[C@H](CCCNC(=N)N)NC(=O)[C@H](CO)NC(=O)[C@H](Cc1ccc(O)cc1)NC(=O)[C@H](CCCNC(=N)N)NC(=O)[C@@H](N)CCCCN)[C@@H](C)CC)[C@@H](C)CC)C(C)C)C(=O)O [114 resynthesized] (H-KRYSRLDYLINGIYVDI-OH) and give its measured EC50. 15.8 µM

====

I'd be grateful if you could share measured EC50 for these entries.
target: GPR1 (Homo sapiens, UniProt P46091); assay: β-arrestin recruitment (Tango), validation; assay type: cell-based; design: host or cells: HTLA cells (HEK293-derived); settings: receptor GPR1; mean, SEM and n (2-3); read-out: b-arrestin recruitment assays (Tango) pEC50 (converted)
Sequence (P46091 whole entry): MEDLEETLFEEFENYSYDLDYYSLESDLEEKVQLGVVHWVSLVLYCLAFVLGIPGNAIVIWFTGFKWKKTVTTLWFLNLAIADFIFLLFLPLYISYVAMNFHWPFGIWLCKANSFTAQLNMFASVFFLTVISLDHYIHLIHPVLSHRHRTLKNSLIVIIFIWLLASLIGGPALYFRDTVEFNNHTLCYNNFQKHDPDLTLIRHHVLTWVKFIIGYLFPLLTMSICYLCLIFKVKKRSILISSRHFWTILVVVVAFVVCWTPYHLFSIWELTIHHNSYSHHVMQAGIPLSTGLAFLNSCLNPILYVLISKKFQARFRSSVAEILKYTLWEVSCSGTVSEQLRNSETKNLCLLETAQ
Residues, ends and D or L forms follow the SMILES beside them.

Look at this molecule and give its reported EC50. CSCC[C@H](NC(=O)[C@H](CCCCN)NC(=O)[C@@H](NC(=O)[C@H](CC(C)C)NC(=O)[C@@H](NC(=O)[C@@H](NC(=O)CNC(=O)CNC(=O)CNC(=O)[C@H](C)NC(=O)[C@@H]1CCCN1C(=O)[C@H](CC(C)C)NC(=O)[C@@H]1CCCN1C(=O)[C@@H](N)C(C)C)[C@@H](C)O)C(C)C)[C@@H](C)O)C(=O)N[C@@H](Cc1ccc(O)cc1)C(=O)N1CCC[C@H]1C(=O)N[C@@H](CCCNC(=N)N)C(=O)O [Peptide 167.2] (H-VPLPAGGGTVLTKMYPR-OH) 3.02 µM

So what does the record say about EC50 for CSCC[C@H](NC(=O)[C@@H](N)Cc1c[nH]c2ccccc12)C(=O)N[C@@H](CC(=O)O)C(=O)N[C@@H](Cc1ccccc1)C(N)=O ? 0.0398 µM

What value of EC50 has been reported for the following molecule? C[C@H](NC(=O)[C@@H](N)CCCCN)C(=O)N1CCC[C@H]1C(=O)N[C@@H](CO)C(N)=O [Peptide 194.3] (H-KAPS-NH2) 1.91e-06 µM

Returns the measured EC50 for the input molecule. Input: CSCC[C@H](NC(=O)[C@H](Cc1ccc(O)cc1)NC(=O)[C@@H](N)CC(=O)O)C(=O)NCC(=O)N[C@@H](Cc1c[nH]c2ccccc12)C(=O)N[C@@H](CCSC)C(=O)N[C@@H](CC(=O)O)C(=O)N[C@@H](Cc1ccccc1)C(N)=O [Peptide 194.1] 8.51 µM

Param item = CC(C)C[C@H](NC(=O)[C@H](CCCNC(=N)N)NC(=O)[C@H](CC(=O)O)NC(=O)[C@H](CC(C)C)NC(=O)[C@@H]1CCCN1C(=O)[C@H](CO)NC(=O)CNC(=O)[C@H](Cc1ccccc1)NC(=O)CNC(=O)[C@H](CO)NC(=O)[C@H](Cc1ccccc1)NC(=O)[C@@H](N)CO)C(=O)N[C@@H](CO)C(=O)N[C@@H](C)C(=O)NCC(=O)N[C@@H](CO)C(=O)N[C@H](C(=O)N[C@@H](CC(=O)O)C(=O)N[C@@H](Cc1c[nH]cn1)C(=O)N[C@@H](CCCCN)C(N)=O)C(C)C [Peptide 141.1] (H-SFSGFGSPLDRLSAGSVDHK-NH2) ; retrieve measured EC50. 14.5 µM

====

target: GPR55 (Homo sapiens); experiment: Real-time receptor internalization (TR-FRET), concentration-response; format: cell-based; set-up: hIL-2Ra signal peptide (N); expressed in transfected cells; details: receptor GPR55; mean, SEM and n (3-4); read-out: Internalization assays pEC50 (converted)
Residues, ends and D or L forms follow the SMILES beside them.
outcome.measure: EC50 (nM)
Report the figure in nM without appending any unit label.

What measured EC50 goes with CC(C)C[C@H](NC(=O)[C@@H](NC(=O)[C@H](C)NC(=O)[C@H](C)NC(=O)[C@H](CC(C)C)NC(=O)[C@@H](N)Cc1ccc(O)cc1)C(C)C)C(N)=O [Peptide 168.2] (H-YLAAVL-NH2) ? 20400

Need EC50, item CSCC[C@H](NC(=O)[C@@H](N)CCC(N)=O)C(=O)N[C@@H](C)C(=O)N[C@H](C(=O)N[C@@H](CCCCN)C(=O)N[C@@H](CCCCN)C(=O)N[C@@H](Cc1ccc(O)cc1)C(=O)N[C@@H](CC(C)C)C(=O)N[C@@H](C)C(=O)N[C@@H](C)C(=O)N[C@H](C(=O)N[C@@H](CC(C)C)C(N)=O)C(C)C)C(C)C [Peptide 168.3] 0.219

Could you tell me which EC50 is on file for CC(C)C[C@H](NC(=O)[C@@H](N)CC(=O)O)C(=O)N[C@@H](CC(C)C)C(=O)N1CCC[C@H]1C(=O)O [Peptide 213.1] (H-DLLP-OH) ? 195

# EC50 lookup, item C[C@H](NC(=O)[C@@H](N)Cc1c[nH]c2ccccc12)C(=O)N[C@@H](CCCNC(=N)N)C(=O)NCC(=O)N[C@@H](CS)C(=O)N[C@@H](CO)C(=O)N[C@H](C(=O)NCC(=O)N[C@@H](CC(N)=O)C(=O)O)[C@@H](C)O [Peptide 213.2] (H-WARGCSTGN-OH) 0.724

Fill in: EC50 of CC[C@H](C)[C@H](NC(=O)CNC(=O)[C@H](CC(=O)O)NC(=O)[C@H](CO)NC(=O)[C@@H](N)Cc1c[nH]cn1)C(=O)N[C@@H](Cc1ccccc1)C(=O)N[C@H](C(=O)N[C@@H](CC(=O)O)C(=O)N[C@@H](CO)C(=O)N[C@@H](Cc1ccc(O)cc1)C(=O)N[C@@H](CO)C(=O)N[C@@H](CCCNC(=N)N)C(=O)N[C@@H](Cc1ccc(O)cc1)C(=O)N[C@@H](CCCNC(=N)N)C(=O)N[C@@H](CCCCN)C(=O)N[C@@H](CCC(N)=O)C(=O)N[C@@H](CCSC)C(=O)N[C@@H](C)C(=O)N[C@H](C(=O)O)C(C)C)[C@@H](C)O [Peptide 168.5] is ___ 75900

====

Target: GPR55 (Homo sapiens)
Experiment: Dynamic mass redistribution (DMR), concentration-response
Format: cell-based
Parameters: hIL-2Ra signal peptide (N); expressed in transfected cells
Settings: receptor GPR55; mean, SEM and n (1-4)
Method: 48 hr prior to parallel assaying, SNAP-tagged oGPCR cells were plated (10,000 cells/well) in fibronectin-coated 384-well Epic biosensor microplates (Corning) and poly-D-lysine coated white 384-well plates (for internalization assays). SNAP- GLP-1 receptor was plated alongside orphan receptor cells as an internal assay control for internalization assays. Receptor-expression was induced with 0.1 μg/ml doxycycline. […]
outcome.measure: DMR assays Emax (peak or AUC)
A bare number is all that is needed in reply.

Request the reported DMR assays Emax (peak or AUC) associated with DLLPPRTPPYQVHISHREARGPSFRICVDFLG [Peptide 213.5] -71711

Query (sequence): HSDGIFTDSYSRYRKQMAVKKYLAAVL [168 original] ; field requested: DMR assays Emax (peak or AUC) 312490

Suppose we examine the sequence KRLGALFNPYFDPLQWKNSDFE [143 original] ; what DMR assays Emax (peak or AUC) value has been reported? 555860

GET /values?readout=DMR assays Emax (peak or AUC)&item= KRYSRLDYLINGIYVDI [114 original] 619843

Data provenance is paper PMC6838683.
